# assay-notes: Half life in balb/c mouse at 10 mg/kg, po
# Assay type: ADME, organism-based
# Parameters: dose 10 mg/kg, route oral
# condition-info: in vivo
measured-property: half-life (h)

- C[C@]1(F)CCC[C@H]1Nc1c(C(N)=O)cnn2cccc12: 1.6

###

# IC50 per record follows
# target-desc: Non-receptor tyrosine-protein kinase TYK2 (Homo sapiens)
# Sequence (P29597 whole entry): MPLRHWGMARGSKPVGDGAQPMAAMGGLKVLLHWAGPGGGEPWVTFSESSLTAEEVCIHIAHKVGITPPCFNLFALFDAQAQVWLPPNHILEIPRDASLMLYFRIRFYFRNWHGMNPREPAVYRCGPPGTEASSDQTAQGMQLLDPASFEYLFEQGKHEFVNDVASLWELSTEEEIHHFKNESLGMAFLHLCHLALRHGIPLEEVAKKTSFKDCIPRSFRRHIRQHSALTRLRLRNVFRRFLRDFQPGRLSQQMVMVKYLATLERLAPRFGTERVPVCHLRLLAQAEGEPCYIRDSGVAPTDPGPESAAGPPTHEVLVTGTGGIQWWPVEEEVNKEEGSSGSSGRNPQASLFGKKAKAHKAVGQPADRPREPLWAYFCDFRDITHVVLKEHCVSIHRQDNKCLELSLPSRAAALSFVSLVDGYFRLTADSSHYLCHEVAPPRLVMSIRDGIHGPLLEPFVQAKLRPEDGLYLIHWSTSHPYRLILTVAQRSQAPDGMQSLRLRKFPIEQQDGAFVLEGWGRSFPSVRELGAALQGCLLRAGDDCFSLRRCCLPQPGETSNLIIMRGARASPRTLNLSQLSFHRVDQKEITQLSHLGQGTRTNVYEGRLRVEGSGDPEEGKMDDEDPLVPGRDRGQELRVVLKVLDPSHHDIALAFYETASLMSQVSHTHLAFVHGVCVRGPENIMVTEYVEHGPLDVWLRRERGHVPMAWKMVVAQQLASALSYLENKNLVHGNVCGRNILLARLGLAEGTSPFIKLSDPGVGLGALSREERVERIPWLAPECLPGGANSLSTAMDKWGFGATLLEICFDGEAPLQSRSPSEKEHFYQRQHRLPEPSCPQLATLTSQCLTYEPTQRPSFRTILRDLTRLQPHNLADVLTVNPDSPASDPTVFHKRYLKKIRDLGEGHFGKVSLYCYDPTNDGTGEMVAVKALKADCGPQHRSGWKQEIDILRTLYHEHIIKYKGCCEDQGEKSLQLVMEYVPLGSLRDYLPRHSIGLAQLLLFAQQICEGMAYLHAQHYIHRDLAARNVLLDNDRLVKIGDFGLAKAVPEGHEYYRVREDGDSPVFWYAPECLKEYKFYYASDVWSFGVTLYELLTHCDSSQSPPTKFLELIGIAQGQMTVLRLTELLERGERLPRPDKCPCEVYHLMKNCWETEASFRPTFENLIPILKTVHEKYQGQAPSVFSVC
measured-property: IC50 (nM)

- C[C@@]1(CO)CCC[C@H]1Nc1c(C(N)=O)cnn2cccc12 (racemic): 390
- CC1(C)[C@H](Nc2c(C(N)=O)cnn3cccc23)CC[C@]1(C)N: 97
- CC1(C)[C@H](N)CC[C@H]1Nc1c(C(N)=O)cnn2cccc12 (racemic): 110
- CC1(C)[C@H](Nc2c(C(N)=O)cnn3cccc23)CC[C@@]1(C)N: 52
- NC(=O)c1cnn2cccc2c1NC1CCCC1: 150
- CC1(C)[C@H](Nc2c(C(N)=O)cnn3cccc23)CC[C@@]1(C)O (racemic): 7
- CC1(C)[C@H](O)CC[C@H]1Nc1c(C(N)=O)cnn2cccc12 (racemic): 22
- C[C@@]1(C#N)CCC[C@H]1Nc1c(C(N)=O)cnn2cccc12 (racemic): 30
- CC1(C)[C@@H](N)CC[C@H]1Nc1c(C(N)=O)cnn2cccc12 (racemic): 110
- C[C@H](Nc1c(C(N)=O)cnn2cccc12)C(C)(C)C: 680
